target_system: FES^S700C (Homo sapiens, UniProt P07332, S700C)
Sequence (P07332 448-822 S700C): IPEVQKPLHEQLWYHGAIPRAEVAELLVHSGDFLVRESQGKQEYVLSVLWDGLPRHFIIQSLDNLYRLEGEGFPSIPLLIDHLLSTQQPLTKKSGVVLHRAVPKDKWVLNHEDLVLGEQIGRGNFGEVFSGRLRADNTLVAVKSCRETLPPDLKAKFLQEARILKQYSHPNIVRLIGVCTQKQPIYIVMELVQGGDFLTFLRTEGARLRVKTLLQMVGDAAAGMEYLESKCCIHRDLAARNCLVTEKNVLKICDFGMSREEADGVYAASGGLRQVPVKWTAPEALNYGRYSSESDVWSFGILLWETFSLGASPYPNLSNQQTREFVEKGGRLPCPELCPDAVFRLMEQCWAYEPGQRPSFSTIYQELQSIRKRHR
measurement_protocol: PamChip microarray peptide phosphorylation
Format: biochemical
Design: human FES cDNA encoding residues 448–822 or human FER cDNA encoding residues 448–820 was amplified by PCR; made in house; host or cells: E. coli BL21(DE3), co-expressing YopH phosphatase
measurement_context: peptide substrate phosphorylated by FES - S700C
measurement_kind: Relative phosphorylation (% of highest signal)

Req: Any idea what its Relative phosphorylation (% of highest signal) is? The substance is VGFR2_1207_1219_C1208S (VSDPKFHYDNTAG; UniProt P35968 1207-1219, looked up, variant C1208S)
Resp: 1.3 % of highest signal

Req: Cool, now ZBT16_621_633 (LRTHNGASPYQCT; UniProt Q05516 621-633, looked up, fragment)
Resp: 1.1 % of highest signal

Req: Cool, now VGFR2_989_1001 (EEAPEDLYKDFLT; UniProt P35968 989-1001, looked up, fragment)
Resp: 14.2 % of highest signal

----------
target_system: FES^S700C (Homo sapiens, UniProt P07332, S700C)
measurement_protocol: In vitro TR-FRET kinase assay
Assay type: biochemical
Parameters: human FES cDNA encoding residues 448–822 or human FER cDNA encoding residues 448–820 was amplified by PCR; made in house; host or cells: E. coli BL21(DE3), co-expressing YopH phosphatase
measurement_context: FES S700C; log[inhibitor] (M) = -5.52288; mean, n=3
measurement_kind: Residual activity (%)
Report the figure in % without appending any unit label.

Req: Any idea what its Residual activity (%) is? The compound is C=CC(=O)Nc1cccc(Nc2nc(Nc3ccccc3OC)ncc2Cl)c1
Resp: -0.5097

Req: Cool, now C=CC(=O)Nc1ccccc1Nc1nc(Nc2ccccc2OC)ncc1Cl
Resp: 10.8053

Req: Cool, now CCC(=O)Nc1ccccc1Nc1nc(Nc2ccccc2OC)ncc1Cl
Resp: 52.0081

Req: Cool, now COc1ccccc1Nc1ncc(Cl)c(Nc2ccccc2S(=O)(=O)C(C)C)n1
Resp: 0.2556

----------
target_system: FES^S700C (Homo sapiens, UniProt P07332, S700C)
measurement_protocol: In vitro TR-FRET kinase assay
Type: biochemical
Set-up: human FES cDNA encoding residues 448–822 or human FER cDNA encoding residues 448–820 was amplified by PCR; made in house; host or cells: E. coli BL21(DE3), co-expressing YopH phosphatase
measurement_context: TR-FRET assay, 5 µM ATP; n = 3; read-out: pIC50 FES^S700C (converted)
I'd be grateful if you could share measured IC50 for these entries.
Report the figure in nM without appending any unit label.

Req: Any idea what its IC50 is? The compound is C=CC(=O)Nc1ccccc1Nc1nc(Nc2ccccc2OC)ncc1Cl
Resp: 3.98

Req: Cool, now COc1ccccc1Nc1ncc(Cl)c(Nc2ccccc2S(=O)(=O)C(C)C)n1
Resp: 15.8

Req: Cool, now CCC(=O)Nc1ccccc1Nc1nc(Nc2ccccc2OC)ncc1Cl
Resp: 6310

Req: Cool, now C#CCOc1ccc(Nc2ncc(Cl)c(Nc3ccccc3NC(=O)C=C)n2)c(OC)c1
Resp: 3.98

----------
I'd be grateful if you could share measured Relative phosphorylation (% of highest signal) for these entries.
target_system: FES^S700C (Homo sapiens, UniProt P07332, S700C)
measurement_protocol: PamChip microarray peptide phosphorylation
Assay type: biochemical
Parameters: human FES cDNA encoding residues 448–822 or human FER cDNA encoding residues 448–820 was amplified by PCR; made in house; host or cells: E. coli BL21(DE3), co-expressing YopH phosphatase
measurement_context: peptide substrate phosphorylated by FES - S700C

Req: Any idea what its Relative phosphorylation (% of highest signal) is? The substance is STAT4_686_698 (TERGDKGYVPSVF; UniProt Q14765 686-698, looked up, fragment)
Resp: -0.317 % of highest signal

Req: Cool, now DDR1_506_518 (LLLSNPAYRLLLA; UniProt Q08345 506-518, looked up, fragment)
Resp: -0.9 % of highest signal

Req: Cool, now VGFR1_1206_1218 (GSSDDVRYVNAFK; UniProt P17948 1206-1218, looked up, fragment)
Resp: 0.24 % of highest signal

Req: Cool, now ODBA_340_352_D340K (KDSSAYRSVDEVN; UniProt P12694 340-352, looked up, variant D340K)
Resp: -0.7 % of highest signal

Req: Cool, now AMPE_5_17 (EREGSKRYCIQTK; UniProt Q07075 5-17, looked up, fragment)
Resp: -0.5 % of highest signal

Req: Cool, now EFS_246_258_Y253F (GGTDEGIFDVPLL; UniProt O43281 246-258, looked up, fragment Y253F)
Resp: -1.4 % of highest signal

Req: Cool, now EPHA4_921_933 (QAIKMDRYKDNFT; UniProt P54764 921-933, looked up, fragment)
Resp: -0.7 % of highest signal
